Target: K18PL tau (Homo sapiens, UniProt P10636, P618L)
Construct: (K18PL; amino acids 244-369); made in house
Sequence (P10636 561-686 P618L): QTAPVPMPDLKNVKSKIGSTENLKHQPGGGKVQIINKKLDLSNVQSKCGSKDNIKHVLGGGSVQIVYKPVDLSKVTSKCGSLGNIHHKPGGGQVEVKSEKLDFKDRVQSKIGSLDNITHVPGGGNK
Experiment: Heparin-induced K18PL tau fibrillization assay monitored by ThT fluorescence
Format: biochemical
Settings: Table 3; highest tested concentration (80 μM); read-out: Tau ThT Assay % Inhib.

structure.smiles.string: CCOC(=O)c1nn(-c2ccc(Cl)cc2)c(=O)c2c(N)scc12
system.name: K18PL tau (Homo sapiens, UniProt P10636, P618L)
inhibition at 80 µM / %: 84
//
structure.smiles.string: CCOC(=O)c1nn(-c2ccc(OC)cc2)c(=O)c2c(N)scc12
system.name: K18PL tau (Homo sapiens, UniProt P10636, P618L)
inhibition at 80 µM / %: 86
//
structure.smiles.string: CCN(CC)C(=O)c1nn(-c2ccc(OC)cc2)c(=O)c2c(N)scc12
system.name: K18PL tau (Homo sapiens, UniProt P10636, P618L)
inhibition at 80 µM / %: 95
//
structure.smiles.string: Nc1scc2c(CO)nn(-c3ccccc3)c(=O)c12
system.name: K18PL tau (Homo sapiens, UniProt P10636, P618L)
inhibition at 80 µM / %: 91
//
structure.smiles.string: CCOC(=O)c1nn(-c2ccccc2)c(=O)c2c(N)sc(C)c12
system.name: K18PL tau (Homo sapiens, UniProt P10636, P618L)
inhibition at 80 µM / %: 35
//
structure.smiles.string: CCOC(=O)c1nn(-c2ccc(C)c(C)c2)c(=O)c2c(N)scc12
system.name: K18PL tau (Homo sapiens, UniProt P10636, P618L)
inhibition at 80 µM / %: 48
//
structure.smiles.string: Nc1scc2c(C(=O)NCc3ccccc3)nn(-c3ccccc3)c(=O)c12
system.name: K18PL tau (Homo sapiens, UniProt P10636, P618L)
inhibition at 80 µM / %: 80
//
structure.smiles.string: CCOC(=O)c1nn(-c2ccccc2)c(=O)c2c(NC(C)=O)scc12
system.name: K18PL tau (Homo sapiens, UniProt P10636, P618L)
inhibition at 80 µM / %: 27
//
structure.smiles.string: COC(=O)c1nn(-c2ccc(F)cc2)c(=O)c2c(N)scc12
system.name: K18PL tau (Homo sapiens, UniProt P10636, P618L)
inhibition at 80 µM / %: 86
